- System: VL51 (marginal zone lymphoma, MZL) cells
- protocol_notes: MTT cell proliferation assay, VL51
- Assay type: cell-based
- experimental_context: Homo sapiens, VL51, 72 h, bound stated
pIC50: −log10 of the molar value.
property: pIC50

## Task Which pIC50 is listed for COc1ccc(Cn2cc3c(c2-c2cc(OC)c(OC)c(OC)c2)CCCc2cnoc2-3)cc1 ?
## Result > 6.30

## Task Follow-up entry: COc1ccc(Cn2cc3c(c2-c2cc(OC)c(OC)c(OC)c2)CCCc2cnoc2-3)cc1N
## Result > 6.30

###

- System: PBL not stimulated with PHA
- protocol_notes: Cytotoxicity in resting human PBLs
- Assay type: cell-based
- experimental_context: 72 h, read-out: IC50 (compound concentration required to inhibit cell growth by 50%)
pIC50: −log10 of the molar value.
property: pIC50

## Task Which pIC50 is listed for COc1ccc(Cn2cc3c(c2-c2ccccc2)CCCc2cnoc2-3)cc1 [3d] ?
## Result < 5.00

## Task Follow-up entry: COc1ccc(Cn2cc3c(c2-c2cc(OC)c(OC)c(OC)c2)CCCc2cnoc2-3)cc1 [3u]
## Result < 5.00

## Task Follow-up entry: COc1ccc(Cn2cc3c(c2-c2cc(OC)c(OC)c(OC)c2)CCCc2cnoc2-3)cc1N [3z]
## Result < 5.00

Provenance of the data: paper PMC10287037
